MIC overview
# Tested on: Staphylococcus aureus
# ASSAY PROTOCOL: Antimicrobial activity against methicillin-resistant Staphylococcus aureus OC3726 by broth microdilution method
# Type: functional
Lab book: enter the figure in µg/mL, no units written.

compound=COc1ccc2nc(OC)c([C@@H](c3ccccc3)[C@](O)(CCc3ccccc3)CCN(C)C)cc2c1 outcome_measure=MIC measured_number=8

Entry N[C@@H]1CONC1=O [CYCLOSERINE] : reported MIC = ?
32

----------
# Test system: Escherichia coli
# ASSAY PROTOCOL: Antimicrobial activity against LPS-deffective Escherichia coli OC2530 by broth microdilution method
# Assay type: functional
Bridge positions count the residues as written; N and C are the ends. Square brackets hold non-standard residues; d marks the D form. Peptide text beside a SMILES is read from it. Dab = NCC[C@H](N)C(=O)O
MIC overview
Value and unit, in that order.

molecule="CC(C)C[C@@H]1NC(=O)[C@@H](Cc2ccccc2)NC(=O)[C@H](CCN)NC(=O)[C@@H](NC(=O)[C@H](CCN)NC(=O)[C@@H](N)[C@@H](C)O)CCNC(=O)[C@H]([C@@H](C)O)NC(=O)[C@H](CCN)NC(=O)[C@H](CCN)NC1=O [POLYMYXIN B NONAPEPTIDE] (H-T[Dab][Dab][Dab][dF]L[Dab][Dab]T; lactam 3-C)" result="16 µg/mL"
molecule=COc1ccc2nc(OC)c([C@@H](c3ccccc3)[C@](O)(CCc3ccccc3)CCN(C)C)cc2c1 result="8 µg/mL"
molecule=COc1ccc2nc(OC)c([C@@H](c3ccccc3)[C@](O)(CCN(C)C)c3ccccc3)cc2c1 result="8 µg/mL"

Field: MIC (Escherichia coli). Entry: `N[C@@H]1CONC1=O`
64 µg/mL
